Tested on: Hippocampal Cultures
Assay: Neuroprotection from hydrogen peroxide (oxidative stress), propidium iodide assay
Assay type: cell-based
Settings: Rattus norvegicus, read-out: NP from HP PI EC50
Provide the recorded pEC50 for the entries that follow.
Keep it numeric: pEC50 is minus log10 of the concentration in mol/L.

Q: Please indicate pEC50 recorded for COc1ccccc1C(O)CCNS(N)(=O)=O (centres unmarked) [Example 14]
Ans: 8.00

Q: Please report pEC50 for the following compound: NS(=O)(=O)NCCC(O)c1csc2ccccc12 (centres unmarked) [Example 2]
Ans: 4.52

Q: Indicate the recorded pEC50 value for this compound: NS(=O)(=O)NCC[C@H](O)c1ccccc1F [Example 15]
Ans: 9.00

Q: Recall and state the measured pEC50 for NS(=O)(=O)NCCC(O)c1c(F)cccc1F (centres unmarked) [Example 22] .
Ans: 8.00

Q: Specify measured pEC50 for NS(=O)(=O)NCCC(O)c1cc(F)ccc1F (centres unmarked) [Example 7] .
Ans: 9.00
